Source of measurements: patent US20100129369A1

# experimental target: T1, Human c-Met-Flis-Fc ECD (human)
# T1 construct: also called human c-Met extracellular domain (ECD)-Fc-Flis fusion; Human cMet-ECD-Fc-Flis
# T1 sequence (chain, as listed by the source limits assumed): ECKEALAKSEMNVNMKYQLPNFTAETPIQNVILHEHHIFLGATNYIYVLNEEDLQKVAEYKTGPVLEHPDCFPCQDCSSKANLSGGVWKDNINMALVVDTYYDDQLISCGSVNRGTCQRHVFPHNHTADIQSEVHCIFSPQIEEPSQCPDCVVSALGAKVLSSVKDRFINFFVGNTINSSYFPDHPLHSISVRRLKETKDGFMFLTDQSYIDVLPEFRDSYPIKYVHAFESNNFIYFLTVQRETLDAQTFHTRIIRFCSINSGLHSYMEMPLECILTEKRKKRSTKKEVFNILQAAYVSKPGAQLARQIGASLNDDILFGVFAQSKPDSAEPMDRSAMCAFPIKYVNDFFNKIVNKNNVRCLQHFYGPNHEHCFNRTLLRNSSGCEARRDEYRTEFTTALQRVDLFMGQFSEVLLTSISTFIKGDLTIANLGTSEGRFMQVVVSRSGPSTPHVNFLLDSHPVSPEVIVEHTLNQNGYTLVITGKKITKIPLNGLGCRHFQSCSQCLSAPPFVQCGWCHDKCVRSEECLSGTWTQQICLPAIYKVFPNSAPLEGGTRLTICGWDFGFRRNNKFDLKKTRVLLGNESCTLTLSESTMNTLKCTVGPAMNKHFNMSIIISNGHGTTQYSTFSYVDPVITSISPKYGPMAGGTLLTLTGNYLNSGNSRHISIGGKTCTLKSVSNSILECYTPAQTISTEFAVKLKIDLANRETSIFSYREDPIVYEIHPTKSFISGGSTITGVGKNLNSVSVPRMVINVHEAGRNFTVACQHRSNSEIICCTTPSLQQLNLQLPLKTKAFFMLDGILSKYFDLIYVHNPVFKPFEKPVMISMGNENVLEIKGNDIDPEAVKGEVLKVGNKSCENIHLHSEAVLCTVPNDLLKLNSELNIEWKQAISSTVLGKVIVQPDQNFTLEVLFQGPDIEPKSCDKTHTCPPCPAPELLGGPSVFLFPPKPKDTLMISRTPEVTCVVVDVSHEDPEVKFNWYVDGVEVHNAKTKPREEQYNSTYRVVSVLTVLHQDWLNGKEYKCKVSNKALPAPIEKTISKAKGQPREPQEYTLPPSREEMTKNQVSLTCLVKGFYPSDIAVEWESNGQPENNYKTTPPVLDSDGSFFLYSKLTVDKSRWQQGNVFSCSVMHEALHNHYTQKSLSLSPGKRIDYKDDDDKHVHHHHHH
# test method notes: ELISA, coated ECD-Fc, antibody 12.860 ng/mL
experimental readout: Average A450 nm (A450 nm)
Report as a plain number; the unit A450 nm is understood.

Return reported Average A450 nm; argument: C8-co-16 (antibody, human IgG2, kappa, V domains shown, Called IgG4, kappa) VH: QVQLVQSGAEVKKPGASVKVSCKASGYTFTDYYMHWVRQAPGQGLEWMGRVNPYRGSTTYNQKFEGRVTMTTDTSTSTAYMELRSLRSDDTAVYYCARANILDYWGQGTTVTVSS VL: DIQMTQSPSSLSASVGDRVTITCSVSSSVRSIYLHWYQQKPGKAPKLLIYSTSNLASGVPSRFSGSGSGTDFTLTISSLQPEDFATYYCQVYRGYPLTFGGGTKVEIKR
4
